assay: background-corrected fluorescence of 3'-dye-labeled ssDNA relative to brightest sequence (3'-GCGCG) (fraction); higher = brighter dye fluorescence (less quenching); conditions: dye: Cy3 (3' terminal)
Collected background-corrected fluorescence values appear next to each entry.

Would you please look over these solved cases?
residue_string="TTTTTGCATCATGCTGCTGCTTTTTTTTTTTTTTTTGAAA [AAAGT]" observed_measurement=0.603
residue_string="TTTTTGCAGCATGATCATCATTTTTTTTTTTTTTTTTCGG [GGCTT]" observed_measurement=0.59
residue_string="TTTTTTGATGATGATCAGCATTTTTTTTTTTTTTTCCCGT [TGCCC]" observed_measurement=0.585
residue_string="TTTTTTGATGCTCATCATGATTTTTTTTTTTTTTTCAGGC [CGGAC]" observed_measurement=0.571
residue_string="TTTTTTGCTGCTGCTCATGATTTTTTTTTTTTTTTAAAGC [CGAAA]" observed_measurement=0.538
residue_string="TTTTTTCATCATCATCATGCTTTTTTTTTTTTTTTGGGGA [AGGGG]" observed_measurement=0.753

Q. Specify background-corrected fluorescence for TTTTTTGCTGCTGCTCAGCATTTTTTTTTTTTTTTAAAGT [TGAAA] and stop.
A. 0.653

Q. Specify background-corrected fluorescence for TTTTTTCATCATGAGCATGCTTTTTTTTTTTTTTTGGCTA [ATCGG] and stop.
A. 0.483

Q. Specify background-corrected fluorescence for TTTTTTGCTCATGCGCATCATTTTTTTTTTTTTTTAGATG [GTAGA] and stop.
A. 0.552

Q. Specify background-corrected fluorescence for TTTTTTGAGCATCATGCTGCTTTTTTTTTTTTTTTCTGAA [AAGTC] and stop.
A. 0.575

Q. Specify background-corrected fluorescence for TTTTTTGCTGCGCAGCATGATTTTTTTTTTTTTTTAATTC [CTTAA] and stop.
A. 0.419

###

test: background-corrected fluorescence of 3'-dye-labeled ssDNA relative to brightest sequence (3'-GCGCG) (fraction); higher = brighter dye fluorescence (less quenching); details: dye: Cy5 (3' terminal)
Collected background-corrected fluorescence values appear next to each entry.
Just the number, please.

residue_string="TTTTTGCATGCGCATCATCATTTTTTTTTTTTTTTTATGG [GGTAT]" reported_endpoint="background-corrected fluorescence" observed_measurement=0.467
residue_string="TTTTTTCATCAGCATGATGATTTTTTTTTTTTTTTGGTCC [CCTGG]" reported_endpoint="background-corrected fluorescence" observed_measurement=0.317

Q. Specify background-corrected fluorescence for TTTTTTCATGCTCATGATGATTTTTTTTTTTTTTTGAGCC [CCGAG] and stop.
A. 0.312

###

test: background-corrected fluorescence of 3'-dye-labeled ssDNA relative to brightest sequence (3'-GCGCG) (fraction); higher = brighter dye fluorescence (less quenching); settings: dye: Cy5 (3' terminal)
Label label 1 when background-corrected fluorescence is at or above 0.4; otherwise label label 0.

Q. Hi, just wondering whether TTTTTTCATGCTGCGCATGATTTTTTTTTTTTTTTGAATC [CTAAG] shows background-corrected fluorescence of 0.4 or higher.
A. label 0

Q. Hi, just wondering whether TTTTTTGCGCATGATCAGCATTTTTTTTTTTTTTTATCGT [TGCTA] shows background-corrected fluorescence of 0.4 or higher.
A. label 1

Q. Hi, just wondering whether TTTTTTCATCAGCATGCTCATTTTTTTTTTTTTTTGGTAG [GATGG] shows background-corrected fluorescence of 0.4 or higher.
A. label 1

Q. Hi, just wondering whether TTTTTGCATGCTCATGCTCATTTTTTTTTTTTTTTTAGAG [GAGAT] shows background-corrected fluorescence of 0.4 or higher.
A. label 1

Sourced from the supplement of paper PMC9428881
